B1: Steroid hormone receptor ERR2, residues 100 to 176; numbered along this chain, O95718 (parent)
chain: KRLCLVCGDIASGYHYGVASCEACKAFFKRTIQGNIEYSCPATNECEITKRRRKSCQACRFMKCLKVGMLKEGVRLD

# Variants of: B1
# TEST DETAILS: abundance fitness (aPCA) (normalised: wild type 0, dead -1); higher = more abundant; growth selection in yeast, the domain comes from the species named
# CONDITION SET: Homo sapiens
EXPERIMENTAL READOUT: abundance fitness
Give bare numbers.

// below: answered variants
C24G | -0.903
E22V | -0.131
A58D | -0.334
G34P | -0.904
F28H | -0.748
A26V | 0.114

Record abundance fitness per entry; entries follow.
1. R51N
2. N35Y
3. R51H
4. I10C
5. G17A
6. H15M
7. G17P
8. P41S

1: -0.072; 2: -0.178; 3: -0.08; 4: -0.058; 5: -0.075; 6: -0.325; 7: -0.416; 8: -0.137
